- Test system: KM-20L2
- ASSAY_PROCEDURE: NCI tumour cell line growth inhibition, 48 h
The source made the active and inactive calls. Cut-off read from the data, not from the text of the source: active = GI50 up to about 1.1 µM and inactive = higher.

COMPOUND | GI50
CC1=NN(c2ccccc2)C(=O)C1=C1SCCCS1 | 31.4 µM (inactive)
CCCCCCCCCCCCN(O)C(=O)c1ccccc1 | 36.2 µM (inactive)
CCN(CC)c1c(C(=O)/C=C/c2ccc(OC)cc2)c(-c2ccccc2)nn(C)c1=O | 15.4 µM (inactive)
Cc1c2cc[n+]([O-])cc2c(C)c2c1[nH]c1ccccc12 | 4.06 µM (inactive)
CC(C)c1cc(C(C)C)c(S(=O)(=O)N=[N+]=[N-])c(C(C)C)c1 | > 100 µM (inactive)
O=S1(=O)OCCOS(=O)(=O)C1(Br)Cc1ccccc1 | > 100 µM (inactive)
CN(C)CCNC(=O)c1cccc2c1Nc1ccccc1S2 | 16.2 µM (inactive)
Nc1nc2c(nnn2C2C=C(CO)C(O)C2O)c(=O)[nH]1 (stereo not given) | > 100 µM (inactive)
Cn1c(=O)nc2n(-c3ccc(Cl)c(C(F)(F)F)c3)c3ccccc3nc-2c1=O | 25.1 µM (inactive)
CC(C)C1CC[C@@H](C)C[C@@]1(O)CC(N)=O (stereo not given in full) | > 100 µM (inactive)

Where do these numbers come from? They come from ChEMBL document CHEMBL1201862.
